# PROTOCOL NOTES: pharmacokinetics of octreotide after subcutaneous injection
# EXPERIMENTAL CONDITIONS: human, plasma, subcutaneous
Counter-ions that a name gives are not always drawn.
ASSAY METRIC: Vd

[Q] What does the record list as Vd for C[C@@H](O)[C@@H]1NC(=O)[C@H](CCCCN)NC(=O)[C@@H](Cc2c[nH]c3ccccc23)NC(=O)[C@H](Cc2ccccc2)NC(=O)[C@@H](NC(=O)[C@H](N)Cc2ccccc2)CSSC[C@@H](C(=O)N[C@H](CO)[C@@H](C)O)NC1=O (relative stereo) [octreotide, acetate salt] ?
[A] ~13.6 L

----------
# PROTOCOL NOTES: pharmacokinetics of octreotide after subcutaneous dosing in patients with acromegaly
# EXPERIMENTAL CONDITIONS: human, in vivo, subcutaneous
# Excerpt: For patients with acromegaly, there may be a different pharmacokinetic profile.
Counter-ions that a name gives are not always drawn.
ASSAY METRIC: clearance

[Q] Consider the compound C[C@@H](O)[C@@H]1NC(=O)[C@H](CCCCN)NC(=O)[C@@H](Cc2c[nH]c3ccccc23)NC(=O)[C@H](Cc2ccccc2)NC(=O)[C@@H](NC(=O)[C@H](N)Cc2ccccc2)CSSC[C@@H](C(=O)N[C@H](CO)[C@@H](C)O)NC1=O (relative stereo) [octreotide, acetate salt] and give its measured clearance.
[A] ~300 mL/min

----------
# PROTOCOL NOTES: pharmacokinetics of octreotide after subcutaneous injection
# EXPERIMENTAL CONDITIONS: human, plasma, subcutaneous
Where a name gives a salt, the structure may show the parent alone.
ASSAY METRIC: clearance

[Q] Name the recorded clearance for C[C@@H](O)[C@@H]1NC(=O)[C@H](CCCCN)NC(=O)[C@@H](Cc2c[nH]c3ccccc23)NC(=O)[C@H](Cc2ccccc2)NC(=O)[C@@H](NC(=O)[C@H](N)Cc2ccccc2)CSSC[C@@H](C(=O)N[C@H](CO)[C@@H](C)O)NC1=O (relative stereo) [octreotide, acetate salt] .
[A] 117 to 167 mL/min
